# Assay Name: Biodistribution in muscle of iv dosed Sprague-Dawley rat after 1 hr
# Type: ADME, organism-based, Muscle tissue
# Measurement Parameters: read-out: Drug uptake
Assay Readout: tissue uptake at 1 h
Answer format: value, then unit.

[ask] Which tissue uptake at 1 h is listed for CC(O)(CS(=O)(=O)c1ccc([76Br])cc1)C(=O)Nc1ccc(C#N)c(C(F)(F)F)c1 (stereo unspecified) ?
[reply] 0.34 %ID/g

* * *

# Assay Name: Biodistribution in prostate of iv dosed CWR22 tumor bearing mouse after 60 min
# Format: ADME, organism-based, Prostate gland
# Measurement Parameters: human, read-out: Drug uptake
Assay Readout: tissue uptake at 1 h (%ID/g)
Write down the numeric answer in %ID/g and omit the unit.

[ask] Which tissue uptake at 1 h is listed for CC(O)(CS(=O)(=O)c1ccc([76Br])cc1)C(=O)Nc1ccc(C#N)c(C(F)(F)F)c1 (stereo unspecified) ?
[reply] 2.8

* * *

# Assay Name: Biodistribution in liver of iv dosed CWR22 tumor bearing mouse after 30 min
# Assay type: ADME, organism-based
# Measurement Parameters: human, read-out: Drug uptake
Assay Readout: tissue uptake at 0.5 h
Answer format: value, then unit.

[ask] Which tissue uptake at 0.5 h is listed for CC(O)(CS(=O)(=O)c1ccc([76Br])cc1)C(=O)Nc1ccc(C#N)c(C(F)(F)F)c1 (stereo unspecified) ?
[reply] 15 %ID/g

* * *

# Assay Name: Biodistribution in bone of iv dosed Sprague-Dawley rat after 18 hrs
# Assay type: ADME, organism-based, Bone element
# Measurement Parameters: read-out: Drug uptake
Assay Readout: tissue uptake at 18 h (%ID/g)
Write down the numeric answer in %ID/g and omit the unit.

[ask] Which tissue uptake at 18 h is listed for CC(O)(CS(=O)(=O)c1ccc([76Br])cc1)C(=O)Nc1ccc(C#N)c(C(F)(F)F)c1 (stereo unspecified) ?
[reply] 0.13

* * *

# Assay Name: Biodistribution in blood of iv dosed CWR22 tumor bearing mouse with 17alpha-methyltestosterone-induced androgen block after 90 min
# Type: ADME, organism-based
# Measurement Parameters: human, read-out: Drug uptake
Assay Readout: tissue uptake at 1.5 h (%ID/g)
Write down the numeric answer in %ID/g and omit the unit.

[ask] Which tissue uptake at 1.5 h is listed for CC(O)(CS(=O)(=O)c1ccc([76Br])cc1)C(=O)Nc1ccc(C#N)c(C(F)(F)F)c1 (stereo unspecified) ?
[reply] 3

* * *

# Assay Name: Biodistribution in muscle of iv dosed Sprague-Dawley rat after 18 hrs
# Type: ADME, organism-based, Muscle tissue
# Measurement Parameters: read-out: Drug uptake
Assay Readout: tissue uptake at 18 h (%ID/g)
Write down the numeric answer in %ID/g and omit the unit.

[ask] Which tissue uptake at 18 h is listed for CC(O)(CS(=O)(=O)c1ccc([76Br])cc1)C(=O)Nc1ccc(C#N)c(C(F)(F)F)c1 (stereo unspecified) ?
[reply] 0.15

* * *

# Assay Name: Biodistribution in liver of iv dosed Sprague-Dawley rat after 1 hr
# Format: ADME, organism-based
# Measurement Parameters: read-out: Drug uptake
Assay Readout: tissue uptake at 1 h (%ID/g)
Write down the numeric answer in %ID/g and omit the unit.

[ask] Which tissue uptake at 1 h is listed for CC(O)(CS(=O)(=O)c1ccc([76Br])cc1)C(=O)Nc1ccc(C#N)c(C(F)(F)F)c1 (stereo unspecified) ?
[reply] 2.1

* * *

# Assay Name: Biodistribution in liver of iv dosed CWR22 tumor bearing mouse after 60 min
# Type: ADME, organism-based
# Measurement Parameters: human, read-out: Drug uptake
Assay Readout: tissue uptake at 1 h (%ID/g)
Write down the numeric answer in %ID/g and omit the unit.

[ask] Which tissue uptake at 1 h is listed for CC(O)(CS(=O)(=O)c1ccc([76Br])cc1)C(=O)Nc1ccc(C#N)c(C(F)(F)F)c1 (stereo unspecified) ?
[reply] 18

* * *

# Assay Name: Biodistribution in liver of iv dosed Sprague-Dawley rat after 18 hrs
# Assay type: ADME, organism-based
# Measurement Parameters: read-out: Drug uptake
Assay Readout: tissue uptake at 18 h (%ID/g)
Write down the numeric answer in %ID/g and omit the unit.

[ask] Which tissue uptake at 18 h is listed for CC(O)(CS(=O)(=O)c1ccc([76Br])cc1)C(=O)Nc1ccc(C#N)c(C(F)(F)F)c1 (stereo unspecified) ?
[reply] 0.56

* * *

# Assay Name: Biodistribution in blood of iv dosed Sprague-Dawley rat after 1 hr
# Format: ADME, organism-based
# Measurement Parameters: read-out: Drug uptake
Assay Readout: tissue uptake at 1 h (%ID/g)
Write down the numeric answer in %ID/g and omit the unit.

[ask] Which tissue uptake at 1 h is listed for CC(O)(CS(=O)(=O)c1ccc([76Br])cc1)C(=O)Nc1ccc(C#N)c(C(F)(F)F)c1 (stereo unspecified) ?
[reply] 0.56

* * *

# Assay Name: Biodistribution in kidney of iv dosed Sprague-Dawley rat after 18 hrs
# Assay type: ADME, organism-based
# Measurement Parameters: read-out: Drug uptake
Assay Readout: tissue uptake at 18 h (%ID/g)
Write down the numeric answer in %ID/g and omit the unit.

[ask] Which tissue uptake at 18 h is listed for CC(O)(CS(=O)(=O)c1ccc([76Br])cc1)C(=O)Nc1ccc(C#N)c(C(F)(F)F)c1 (stereo unspecified) ?
[reply] 0.36

* * *

# Assay Name: Biodistribution in muscle of iv dosed CWR22 tumor bearing mouse after 30 min
# Type: ADME, organism-based, Muscle tissue
# Measurement Parameters: human, read-out: Drug uptake
Assay Readout: tissue uptake at 0.5 h (%ID/g)
Write down the numeric answer in %ID/g and omit the unit.

[ask] Which tissue uptake at 0.5 h is listed for CC(O)(CS(=O)(=O)c1ccc([76Br])cc1)C(=O)Nc1ccc(C#N)c(C(F)(F)F)c1 (stereo unspecified) ?
[reply] 2.5

* * *

# Assay Name: Ratio of drug uptake in prostate to blood in iv dosed Sprague-Dawley rat after 1 hr
# Assay type: ADME, organism-based, Prostate gland
Assay Readout: Kp at 1 h
Form field (numeric): enter value without unit.

[ask] Which Kp at 1 h is listed for CC(O)(CS(=O)(=O)c1ccc([76Br])cc1)C(=O)Nc1ccc(C#N)c(C(F)(F)F)c1 (stereo unspecified) ?
[reply] 1.8

* * *

# Assay Name: Biodistribution in kidney of iv dosed CWR22 tumor bearing mouse after 60 min
# Format: ADME, organism-based
# Measurement Parameters: human, read-out: Drug uptake
Assay Readout: tissue uptake at 1 h (%ID/g)
Write down the numeric answer in %ID/g and omit the unit.

[ask] Which tissue uptake at 1 h is listed for CC(O)(CS(=O)(=O)c1ccc([76Br])cc1)C(=O)Nc1ccc(C#N)c(C(F)(F)F)c1 (stereo unspecified) ?
[reply] 7.8

* * *

# Assay Name: Biodistribution in tumor of iv dosed CWR22 tumor bearing mouse after 30 min
# Assay type: ADME, organism-based
# Measurement Parameters: human, read-out: Drug uptake
Assay Readout: tissue uptake at 0.5 h
Answer format: value, then unit.

[ask] Which tissue uptake at 0.5 h is listed for CC(O)(CS(=O)(=O)c1ccc([76Br])cc1)C(=O)Nc1ccc(C#N)c(C(F)(F)F)c1 (stereo unspecified) ?
[reply] 2.5 %ID/g

* * *

# Assay Name: Biodistribution in liver of iv dosed testis-intact Sprague-Dawley rat after 1 hr block
# Format: ADME, organism-based
# Measurement Parameters: male, read-out: Drug uptake
Assay Readout: tissue uptake at 1 h (%ID/g)
Write down the numeric answer in %ID/g and omit the unit.

[ask] Which tissue uptake at 1 h is listed for CC(O)(CS(=O)(=O)c1ccc([76Br])cc1)C(=O)Nc1ccc(C#N)c(C(F)(F)F)c1 (stereo unspecified) ?
[reply] 2.5

* * *

# Assay Name: Biodistribution in muscle of iv dosed CWR22 tumor bearing mouse with 17alpha-methyltestosterone-induced androgen block after 90 min
# Format: ADME, organism-based
# Measurement Parameters: human, read-out: Drug uptake
Assay Readout: tissue uptake at 1.5 h (%ID/g)
Write down the numeric answer in %ID/g and omit the unit.

[ask] Which tissue uptake at 1.5 h is listed for CC(O)(CS(=O)(=O)c1ccc([76Br])cc1)C(=O)Nc1ccc(C#N)c(C(F)(F)F)c1 (stereo unspecified) ?
[reply] 2.8

* * *

# Assay Name: Biodistribution in kidney of iv dosed Sprague-Dawley rat after 1 hr
# Assay type: ADME, organism-based
# Measurement Parameters: read-out: Drug uptake
Assay Readout: tissue uptake at 1 h (%ID/g)
Write down the numeric answer in %ID/g and omit the unit.

[ask] Which tissue uptake at 1 h is listed for CC(O)(CS(=O)(=O)c1ccc([76Br])cc1)C(=O)Nc1ccc(C#N)c(C(F)(F)F)c1 (stereo unspecified) ?
[reply] 1

* * *

# Assay Name: Biodistribution in prostate of iv dosed Sprague-Dawley rat after 1 hr
# Type: ADME, organism-based, Prostate gland
# Measurement Parameters: read-out: Drug uptake
Assay Readout: tissue uptake at 1 h (%ID/g)
Write down the numeric answer in %ID/g and omit the unit.

[ask] Which tissue uptake at 1 h is listed for CC(O)(CS(=O)(=O)c1ccc([76Br])cc1)C(=O)Nc1ccc(C#N)c(C(F)(F)F)c1 (stereo unspecified) ?
[reply] 1
